Reference source: ChEMBL document CHEMBL3616388

TARGET: UniProtKB P24941
TEST NAME: Binding affinity to N-terminal His-tagged recombinant human CDK2 (1 to 298 amino acid residues) expressed in Escherichia coli BL21 assessed as inhibition of interaction with cyclin A3 by measuring 2.5 mM HHASPRK phosphorylation by ADP-Glo Max assay in presence of 75 uM ATP
OBSERVABLE: IC50 (µM)
Give bare numbers, in µM.

Hello, please tell me recorded IC50 for this one: CSc1ccc(/C=N/c2cc([N+](=O)[O-])ccc2O)cc1
69.8

----------
Please provide measured inhibition for the entries that follow.
TARGET: Cyclin-dependent kinase 2 (Homo sapiens, UniProt P24941)
TEST NAME: Binding affinity to N-terminal His-tagged recombinant human CDK2 (1 to 298 amino acid residues) expressed in Escherichia coli BL21 assessed as inhibition of interaction with cyclin A3 by measuring HHASPRK phosphorylation at 100 uM by ADP-Glo Max assay relative to control
Give bare numbers, in %.

For every item below, please supply its inhibition.
1. Cc1ccccc1C(=O)N(Cc1ccc(C(F)(F)F)cc1)c1ccc(CC(=O)NCc2ccc(F)cc2)cc1
2. CSc1ccc(/C=N/c2cc([N+](=O)[O-])ccc2O)cc1
3. C/C(Cc1ccccc1)=N\Nc1nnc2c(n1)[nH]c1ccccc12

37.5
65.5
35.2

Give inhibition for the following compound: OC(CN1CCN(CC(O)Cn2c3ccc(Br)cc3c3cc(Br)cc(Br)c32)CC1)Cn1c2ccccc2c2ccccc21 (stereo unspecified)
31

----------
TARGET: Cyclin-dependent kinase 2 (Homo sapiens)
TEST NAME: Binding affinity to N-terminal His-tagged recombinant human CDK2 (1 to 298 amino acid residues) expressed in Escherichia coli BL21 assessed as inhibition of interaction with cyclin A3 by measuring 250 uM HHASPRK phosphorylation by ADP-Glo Max assay in presence of 750 uM ATP
OBSERVABLE: IC50 (µM)
One number for each entry, in µM.

Report its IC50 with Cyclin-dependent kinase 2 (Homo sapiens) as the test system: CSc1ccc(/C=N/c2cc([N+](=O)[O-])ccc2O)cc1
55.1

----------
TARGET: Cyclin-dependent kinase 2 (Homo sapiens, UniProt P24941, Y180A)
TEST NAME: Binding affinity to human CDK2 Y180A mutant expressed in Escherichia coli BL21 assessed as inhibition of interaction with cyclin A3 by measuring HHASPRK phosphorylation by ADP-Glo Max assay
OBSERVABLE: pIC50
Numbers only, as −log10 of the molar value.

Determine its reported pIC50: CSc1ccc(/C=N/c2cc([N+](=O)[O-])ccc2O)cc1
3.82

----------
TARGET: Cyclin-dependent kinase 2 (Homo sapiens, UniProt P24941)
TEST NAME: Binding affinity to N-terminal His-tagged recombinant human CDK2 (1 to 298 amino acid residues) expressed in Escherichia coli BL21 assessed as inhibition of interaction with cyclin A3 by measuring 1.25 mM HHASPRK phosphorylation by ADP-Glo Max assay in presence of 75 uM ATP
OBSERVABLE: IC50 (µM)
Give bare numbers, in µM.

Enter IC50 (test system Cyclin-dependent kinase 2 (Homo sapiens, UniProt P24941)) for CSc1ccc(/C=N/c2cc([N+](=O)[O-])ccc2O)cc1
58.1

----------
TARGET: Cyclin-dependent kinase 2 (Homo sapiens, UniProt P24941)
TEST NAME: Binding affinity to N-terminal His-tagged recombinant human CDK2 (1 to 298 amino acid residues) expressed in Escherichia coli BL21 assessed as inhibition of interaction with cyclin A3 by measuring 250 uM HHASPRK phosphorylation by ADP-Glo Max assay in presence of 375 uM ATP
OBSERVABLE: IC50 (µM)
Answers are plain numbers, in µM.

Could you please provide reported IC50 for CSc1ccc(/C=N/c2cc([N+](=O)[O-])ccc2O)cc1 ? Thanks!
78.3
